Origin of values: the supplement of paper PMC10567573

Documented protein stability index across a set of variants
B1: NECAB1 (parent)
chain: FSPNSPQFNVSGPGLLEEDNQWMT

Variants of: B1
ASSAY_DETAILS: protein stability index of a GFP-peptide fusion (GPS, HEK-293T) (PSI 1-6); higher = more stable;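 note: lentivirally expressed fusions sorted by FACS into six bins by GFP to DsRed ratio, PSI derived from sequencing read proportions per bin multiplied by bin number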
RUN_PARAMETERS: c terminus: a fixed tail appended
Could you keep your reply to the number by itself?

Before answering, review these 3 worked examples.
>>> df
   sequence_change             test_readout  measured_result
0              S5L  protein stability index             2.93
1             S11L  protein stability index             2.91
2             V10W  protein stability index             1.87

Task: I have this variant here, `T24H` , and I need its recorded protein stability index.
Output: 2.99

Task: Now consider `M23G` .
Output: 3.66

Task: Let us now turn to `P13W`
Output: 1.7

Task: Param item: `L16G`
Output: 2.73

Task: Moving on to the next variant: `E17W`
Output: 2.82

Task: And `N20D` ?
Output: 3.86

Task: Now the variant `P6V`
Output: 2.56
